Target: Human Calpain 1/NS1 (Homo sapiens, UniProt P07384)
Sequence (P07384 1-714): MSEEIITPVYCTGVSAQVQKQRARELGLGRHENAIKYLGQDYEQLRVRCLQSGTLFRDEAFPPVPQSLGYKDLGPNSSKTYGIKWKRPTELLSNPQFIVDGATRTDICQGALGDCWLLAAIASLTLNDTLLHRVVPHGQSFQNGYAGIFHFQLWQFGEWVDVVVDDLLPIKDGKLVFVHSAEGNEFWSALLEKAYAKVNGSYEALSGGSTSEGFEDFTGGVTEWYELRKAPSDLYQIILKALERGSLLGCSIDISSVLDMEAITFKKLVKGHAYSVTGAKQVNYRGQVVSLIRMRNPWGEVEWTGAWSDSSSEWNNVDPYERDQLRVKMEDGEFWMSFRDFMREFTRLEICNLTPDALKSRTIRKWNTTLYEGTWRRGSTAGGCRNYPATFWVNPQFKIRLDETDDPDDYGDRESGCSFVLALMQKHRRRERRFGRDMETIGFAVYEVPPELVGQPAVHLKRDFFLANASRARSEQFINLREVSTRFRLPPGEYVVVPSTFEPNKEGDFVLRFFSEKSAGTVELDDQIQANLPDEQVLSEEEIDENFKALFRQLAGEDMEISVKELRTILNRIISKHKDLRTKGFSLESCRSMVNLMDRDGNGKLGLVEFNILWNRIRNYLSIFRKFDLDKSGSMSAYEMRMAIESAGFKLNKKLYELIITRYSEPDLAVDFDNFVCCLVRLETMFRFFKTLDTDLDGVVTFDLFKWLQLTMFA
Sequence (P04632 1-268 partner): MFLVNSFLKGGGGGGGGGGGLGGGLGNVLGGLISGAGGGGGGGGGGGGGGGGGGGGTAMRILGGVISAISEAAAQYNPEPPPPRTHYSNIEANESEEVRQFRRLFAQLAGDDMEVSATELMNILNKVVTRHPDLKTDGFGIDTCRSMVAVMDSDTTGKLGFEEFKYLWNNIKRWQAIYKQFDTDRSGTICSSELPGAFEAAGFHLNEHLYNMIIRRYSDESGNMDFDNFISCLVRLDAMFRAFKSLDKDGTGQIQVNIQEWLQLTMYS
Experiment: Calpain inhibition, continuous fluorescence (FRET substrate) assay, calpain 1
Type: biochemical
Conditions: SensoLyte 520 FRET substrate, 25C
quantityName: IC50

Examples from the recorded data:
Lookup: # lookup: IC50 of NC(=O)C(=O)C(Cc1ccccc1)NC(=O)c1cn(C(F)F)nc1-c1ncnc2ccccc12 (centres unmarked)
Found: < 3 µM

Lookup: # lookup: IC50 of Cc1cc(C(=O)NC(Cc2ccccc2)C(=O)C(N)=O)nn1-c1ncc2ccccc2n1 (centres unmarked)
Found: > 10 µM

Lookup: # lookup: IC50 of NC(=O)C(=O)C(Cc1ccccc1)NC(=O)c1cn(C(F)F)nc1-c1cc(Cl)oc1Cl (centres unmarked)
Found: < 3 µM

Lookup: # lookup: IC50 of Cc1nc(-c2ccoc2Cl)c(C(=O)NC(Cc2ccccc2)C(=O)C(N)=O)o1 (centres unmarked)
Found: < 3 µM

Lookup: # lookup: IC50 of O=C(NC(Cc1ccccc1)C(=O)c1nc[nH]n1)c1nsnc1-c1ccccc1 (centres unmarked)
Found: > 10 µM

Lookup: # lookup: IC50 of Cc1nc(-c2ccccc2F)c(C(=O)NC(Cc2ccccc2)C(=O)C(=O)O)o1 (centres unmarked)
Found: < 3 µM

Lookup: # lookup: IC50 of NC(=O)C(=O)C(Cc1ccccc1)NC(=O)c1cn(C(F)F)nc1-c1nccc2ccccc12 (centres unmarked)
Found: < 3 µM

// next entry
Lookup: # lookup: IC50 of O=C(O)C(=O)C(Cc1ccccc1)NC(=O)c1cn(C2CC2)nc1-c1ccccc1 (centres unmarked)
Found: < 3 µM
